Target: T1, FBF-2 (164-575);MBP-CPB-1 (1-80) (Caenorhabditis elegans;Caenorhabditis …, UniProt Q09312;Q03571 164-575;1-80, |)
T1 sequence 1: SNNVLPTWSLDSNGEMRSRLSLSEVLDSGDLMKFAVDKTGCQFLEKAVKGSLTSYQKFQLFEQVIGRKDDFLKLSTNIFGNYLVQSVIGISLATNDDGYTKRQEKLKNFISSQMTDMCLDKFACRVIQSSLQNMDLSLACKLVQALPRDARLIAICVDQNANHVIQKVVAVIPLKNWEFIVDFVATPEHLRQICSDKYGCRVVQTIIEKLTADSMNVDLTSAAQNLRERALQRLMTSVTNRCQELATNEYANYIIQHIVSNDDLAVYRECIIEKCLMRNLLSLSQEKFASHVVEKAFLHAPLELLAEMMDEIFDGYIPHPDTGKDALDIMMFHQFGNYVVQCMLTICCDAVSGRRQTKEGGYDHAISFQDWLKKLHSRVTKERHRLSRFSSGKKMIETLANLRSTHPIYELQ
T1 sequence 2: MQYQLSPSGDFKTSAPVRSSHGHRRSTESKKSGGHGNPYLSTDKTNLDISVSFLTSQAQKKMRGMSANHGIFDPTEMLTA
Protocol Text: EMSA
Readout: Kd (nM)
Hi! Could you send only the number? It should be in nM, unit omitted.

Record CGAAAUAAACAUUUUGUACCAUUCAGUC (ssRNA) [cyb-1 RNA] . Reported Kd: 5.8
